target: Taq DNA polymerase (I532T/R536C/K540C/H784C)/(R25S/Y81F/G187A) (UniProt P19821 P19821:1-832, I532T,R536C,K540C,H784C,R25S,Y81F,G187A); test: EMSA; 1x TAE with 2 mM EDTA, pH 8.3; above highest tested 1000 nM; conditions: tags: Fermentas; label: 5'-33P on 24 nt strand; 24 nt primer annealed to 44 nt template, 20 nt 5' template overhang
Sequence (P19821 whole entry R25S/Y81F/G187A/I532T/R536C/K540C/H784C, one chain of several): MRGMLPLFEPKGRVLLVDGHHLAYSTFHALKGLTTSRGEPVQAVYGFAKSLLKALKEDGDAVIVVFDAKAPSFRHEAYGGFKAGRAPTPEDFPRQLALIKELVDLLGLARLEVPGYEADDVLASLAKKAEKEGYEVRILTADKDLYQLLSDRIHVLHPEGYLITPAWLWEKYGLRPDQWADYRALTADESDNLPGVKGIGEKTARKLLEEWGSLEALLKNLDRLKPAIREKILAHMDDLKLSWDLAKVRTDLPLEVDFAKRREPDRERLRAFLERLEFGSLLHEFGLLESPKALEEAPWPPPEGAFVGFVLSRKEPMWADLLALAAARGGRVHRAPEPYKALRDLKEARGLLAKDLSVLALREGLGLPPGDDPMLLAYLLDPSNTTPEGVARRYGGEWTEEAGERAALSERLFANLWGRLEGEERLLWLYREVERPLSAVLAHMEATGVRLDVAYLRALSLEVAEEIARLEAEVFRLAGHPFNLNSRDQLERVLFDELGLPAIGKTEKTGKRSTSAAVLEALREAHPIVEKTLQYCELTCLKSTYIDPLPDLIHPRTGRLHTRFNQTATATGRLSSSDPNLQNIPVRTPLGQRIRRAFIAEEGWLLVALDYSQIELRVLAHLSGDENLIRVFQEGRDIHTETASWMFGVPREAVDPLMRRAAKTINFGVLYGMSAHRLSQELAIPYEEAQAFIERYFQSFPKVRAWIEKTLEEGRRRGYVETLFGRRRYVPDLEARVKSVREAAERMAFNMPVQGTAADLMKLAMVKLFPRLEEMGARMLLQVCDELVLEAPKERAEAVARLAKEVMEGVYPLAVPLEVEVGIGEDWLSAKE

| binder | Kd (µM) |
| --- | --- |
| 24/44 nt template-primer duplex (dsDNA) DNA 1: TTTTAGCCGCTAGAGTCGACCTGC DNA 2: GGAGACAAGCTTGTATGCCTGCAGGTCGACTCTAGCGGCTAAAA | 16 |
